# System: MDA-MB-468 breast
# TEST METHOD NOTES: NCI tumour cell line growth inhibition, 48 h
I'd appreciate it if you could supply GI50 values for the items below.

Query: Could you share which GI50 value was measured for CN1CCN(Cc2ccc(NC(=O)c3ccc(C(C)(C)C)c(C#Cc4cnc5cccnn45)c3)cc2C(F)(F)F)CC1 ?
Result: 1980 nM

Query: Next record, please: CNC(=O)c1cn(C[C@H](F)CCc2ccc(NC(=O)Cc3cc(OC4CC(F)(F)C4)cc(C)n3)nn2)nn1
Result: > 100000 nM

Query: Next record, please: Cc1sc(C)c(-c2ccc(CO)o2)c1-c1ccc(CO)o1
Result: 17.8 nM

Query: Next record, please: CC(=O)n1c(-c2ccc(Cl)cc2)nc2c(c1=O)C(c1ccc(Cl)cc1)c1sc3c(Cl)cccc3c1O2 (centres undefined)
Result: 225 nM

Query: Next record, please: CCCSc1cc(Cl)nc(N)n1
Result: 85800 nM

Query: Next record, please: O=P(O)(O)C(O)(Cn1ccnc1)P(=O)(O)O
Result: > 87300 nM

Query: Next record, please: COCC(=O)OC1CCn2c1nc1c2C(=O)C(C)=C(NC(C)=O)C1=O (centres undefined)
Result: 270 nM

Query: Next record, please: CC(C)(C)OC(=O)c1ccc(NCc2cc(O)ccc2O)cc1
Result: 1510 nM

Query: Next record, please: CCCCCC(=O)Oc1ccc(/C(=C(\C)c2ccc(OC)cc2)c2ccc(OCCN3CCCCC3)cc2)cc1
Result: 4020 nM

Query: Next record, please: O=C(Nc1cc(-c2ccccc2)[nH]n1)c1ccc(Cl)cc1
Result: > 100000 nM

Query: Next record, please: FC(F)(F)c1ccc2c(Nc3cccc(C4CC(c5ccccc5)=NN4c4ccc(Cl)cc4)c3)ccnc2c1 (centres undefined)
Result: 3020 nM

Query: Next record, please: CC(=O)Nc1cc(F)cc(-c2ccc3[nH]cc(-c4ccccc4)c3n2)c1
Result: 2090 nM

Query: Next record, please: CS(=O)(=O)Nc1ccc(-c2ccc3c(NC(=O)C4CC4)n[nH]c3c2)cc1
Result: 7200 nM

Query: Next record, please: Cc1noc(C)c1-c1ccc2[nH]c(=O)n3c2c1OC[C@@H]3c1ccccn1
Result: 719 nM

Query: Next record, please: CCNCCOc1ccc(/C(=C(/CC)c2ccc(Cl)cc2)c2ccc(OCCCN(C)C)cc2)cc1
Result: 1520 nM

Query: Next record, please: COc1ccc(/C=N/NC(=O)c2[nH]c3ccc(Br)cc3c2-c2ccccc2)s1
Result: 58.6 nM

Query: Next record, please: C=C1C(=O)O[C@H]2[C@H]1CC/C(COC(=O)c1cc3cc(OC)ccc3[nH]1)=C\CC[C@@]1(C)O[C@@H]21
Result: 1130 nM

Query: Next record, please: Oc1ccc(Cc2ccccc2)c2cccnc12
Result: 1920 nM

Query: Next record, please: CCCNCc1cc(C)cc2c1nc(N1CCNCC1)n2Cc1cc(C)c(F)c(C)c1
Result: 1880 nM

====

I'd appreciate it if you could supply TGI values for the items below.
# Tested on: MDA-MB-468 breast
# TEST METHOD NOTES: NCI tumour cell line growth inhibition, 48 h
Please respond with the number in µM and leave the unit unwritten.

Query: Could you share which TGI value was measured for COc1ccc(NC2=C(Br)C(=O)C(C)=C(C)C2=O)cc1 ?
Result: 3.16

Query: Next record, please: CCCNCc1cc(C)cc2c1nc(N1CCNCC1)n2Cc1cc(C)c(F)c(C)c1
Result: 3.71
